So I've got a bunch of compounds here, and I need their IC50 values.
# TARGET_OF_ASSAY: IMP-1 (Serratia marcescens)
# Sequence (P52699 whole entry, looked up): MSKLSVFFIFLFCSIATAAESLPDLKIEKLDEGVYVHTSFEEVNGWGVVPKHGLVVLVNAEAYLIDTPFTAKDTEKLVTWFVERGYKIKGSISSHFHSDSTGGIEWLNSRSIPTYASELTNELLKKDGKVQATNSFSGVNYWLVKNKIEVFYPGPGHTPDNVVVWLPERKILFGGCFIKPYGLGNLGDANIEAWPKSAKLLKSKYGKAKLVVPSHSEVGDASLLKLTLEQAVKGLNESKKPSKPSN
# MEASUREMENT_DESCRIPTION: biochemical
# Assay type: biochemical
# CONDITION_INFO: fluorescence assay with CCF2-FA substrate; read-out: IMP-1 IC50
// note: answer is a bare numeric in nM

Answer with the recorded IC50 for the compound listed here: NCC1CN(C2CCN(c3ccc(C(F)(F)F)c(S(N)(=O)=O)c3-c3nnn[nH]3)CC2)C1
123

Specify IC50 for COc1cccc(-c2cccc(S(N)(=O)=O)c2-c2nn[nH]n2)n1 and stop.
1210

Supply recorded IC50 for NS(=O)(=O)c1nccc(-c2ccc3cn[nH]c3c2)c1-c1nn[nH]n1 here.
1430

Return IC50 (reported value) for this compound: NS(=O)(=O)c1nccc(N2CCC(n3ccnc3)CC2)c1-c1nnn[nH]1
3210

Give me measured IC50, please, for this compound: NS(=O)(=O)c1c(C(F)(F)F)ccc(-c2ccc(C3CCN(C4CC5CCC4N5)CC3)cc2)c1-c1nnn[nH]1 (centres unmarked)
0.438

State its IC50: NS(=O)(=O)c1nccc(N2CCC(Oc3ncccn3)CC2)c1-c1nnn[nH]1
423

Return value of IC50 for input NS(=O)(=O)c1c(C(F)(F)F)ccc(N2CCC(N3CCNCC3)C2)c1-c1nnn[nH]1 (centres unmarked) , no commentary.
251

Identify IC50 associated with the compound Nc1nnc(C2CCN(c3ccc(C(F)(F)F)c(S(N)(=O)=O)c3-c3nnn[nH]3)CC2)s1
68.7

* * *

# TARGET_OF_ASSAY: VIM-1 (Pseudomonas aeruginosa (strain ATCC 15692 / DSM 22644 / CIP 104116 / JCM 14847 / LMG 12228 / 1C / PRS 101 / PAO1), UniProt A0A0F7KYQ8)
# MEASUREMENT_DESCRIPTION: Enzyme activity: determination of IC50, fluorescence assay with CCF2-FA substrate (VIM-1)
# Format: biochemical
# CONDITION_INFO: VIM-1 enzyme, CCF2-FA fluorescence assay; read-out: VIM-1 IC50
EXPERIMENTAL_ENDPOINT: log10(IC50) (log10 of the value in µM)
Values below are the log10 of the recorded IC50, with µM as the unit.

Consider the molecule CCCc1ccc(-c2ccc(C3CCNCC3)cc2)c(-c2nnn[nH]2)c1S(N)(=O)=O and give its recorded log10(IC50).
-3.10

Provide only the value of recorded log10(IC50) for NS(=O)(=O)c1c(CCC2CCNCC2)ccc(-c2ccnc3ccccc23)c1-c1nn[nH]n1
-2.70

Give the reported log10(IC50) for this molecule. NS(=O)(=O)c1cccc(-c2ccc(CN3CCC(C(=O)O)C3)cc2)c1-c1nnn[nH]1 (centres unmarked)
0.07

Recall and state the measured log10(IC50) for CN1CCN(Cc2ccc(-c3cccc(S(N)(=O)=O)c3-c3nnn[nH]3)cc2)CC1 .
-0.17

Give a short answer stating reported log10(IC50) for NS(=O)(=O)c1cccc(-c2ccc(CN3CC(F)(F)C3)cc2)c1-c1nnn[nH]1 .
-0.33

Please look at this molecule and report its log10(IC50): NS(=O)(=O)c1c(C(F)(F)F)ccc(CC[C@H]2CC[C@H](N)CC2)c1-c1nn[nH]n1
-3.36

Provide one value: measured log10(IC50) of Nc1nc2c(-c3ccc(C(F)(F)F)c(S(N)(=O)=O)c3-c3nnn[nH]3)cccc2s1
-3.15

Give log10(IC50) for Cc1nc(CNCc2ccc(-c3cccc(S(N)(=O)=O)c3-c3nnn[nH]3)cc2)no1
-0.63

* * *

# TARGET_OF_ASSAY: IMP-1 (Serratia marcescens)
# MEASUREMENT_DESCRIPTION: biochemical
# Type: biochemical
# CONDITION_INFO: IMP-1 enzyme, CCF2-FA substrate; read-out: IMP-1 IC50
Output MET for records whose IC50 is lower than 30 nM, NOT MET for records at or above 30 nM.

Find out if reported IC50 for CN(CCN1CCCC1)c1ccc(-c2cccc(S(N)(=O)=O)c2-c2nnn[nH]2)cn1 is less than 30 nM
NOT MET

Regarding NS(=O)(=O)c1c(C(F)(F)F)ccc(-c2cccc3c2ccc[n+]3[O-])c1-c1nn[nH]n1 , kindly confirm whether its IC50 is beneath 30 nM.
MET

Strictly below 30 nM in IC50? NS(=O)(=O)c1c(C(F)(F)F)ccc(-c2ccc3c(c2)CNC3)c1-c1nnn[nH]1
MET

Consider Nc1ncc2c(-c3ccc(C(F)(F)F)c(S(N)(=O)=O)c3-c3nn[nH]n3)cccc2n1 . Does its IC50 lie strictly below 30 nM?
MET

Quick check: IC50 of Nc1nc2c(-c3ccc(CCC4CCC(N)CC4)c(S(N)(=O)=O)c3-c3nn[nH]n3)cccc2s1 (centres unmarked) under 30 nM?
MET

Check if IC50 falls below 30 nM for NS(=O)(=O)c1cccc(-c2ccc(N3CCC(O)C3)nc2)c1-c1nnn[nH]1 (centres unmarked) .
NOT MET

Quick check: IC50 of NS(=O)(=O)c1c(C(F)(F)F)ccc(-c2cccc(N3CCNCC3)c2)c1-c1nnn[nH]1 under 30 nM?
MET

Find out if reported IC50 for Nc1ncc(-c2ccc(-c3cccc4sc(N)nc34)c(-c3nn[nH]n3)c2S(N)(=O)=O)s1 is less than 30 nM
NOT MET

* * *

Record form. Attribute: pIC50. Fill in for each entry.
# TARGET_OF_ASSAY: UniProtKB P52699
# MEASUREMENT_DESCRIPTION: biochemical
# Assay type: biochemical
# CONDITION_INFO: IMP-1 enzyme, CCF2-FA substrate; read-out: IMP-1 IC50
Please note pIC50 is a logarithmic value: minus log10 of concentration in mol/L. Answer with that number alone.

Return pIC50 for the following molecule: N=C(N)N1CC(c2ccc(-c3ccc(CC4CCNCC4)c(S(N)(=O)=O)c3-c3nn[nH]n3)cc2)C1
7.50

Determine from records and report pIC50 for NS(=O)(=O)c1c(C(F)(F)F)ccc(-c2ccc(CN3CCNCC3)cc2)c1-c1nnn[nH]1
8.62

Indicate the recorded pIC50 value for this molecule: NS(=O)(=O)c1c(C(F)(F)F)ccc([C@H]2CC[C@H](NC3CCCNC3)CC2)c1-c1nnn[nH]1 (stereo partly shown)
8.19

Retrieve pIC50 measured for NS(=O)(=O)c1c(C(F)(F)F)ccc(-c2ccc3c(c2)CNCC3)c1-c1nnn[nH]1 and print it.
7.79

* * *

# TARGET_OF_ASSAY: NDM-1 (Klebsiella pneumoniae)
# Sequence (C7C422 whole entry, looked up, species assumed): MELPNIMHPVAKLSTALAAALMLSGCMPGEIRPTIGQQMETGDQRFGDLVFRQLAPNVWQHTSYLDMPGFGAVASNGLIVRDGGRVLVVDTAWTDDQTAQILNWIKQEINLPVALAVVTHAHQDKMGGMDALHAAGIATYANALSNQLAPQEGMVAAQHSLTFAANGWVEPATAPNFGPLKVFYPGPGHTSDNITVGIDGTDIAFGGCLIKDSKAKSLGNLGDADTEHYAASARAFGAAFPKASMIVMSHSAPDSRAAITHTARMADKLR
# MEASUREMENT_DESCRIPTION: biochemical
# Assay type: biochemical
# CONDITION_INFO: fluorescence assay with CCF2-FA substrate; read-out: NDM-1 IC50
Would you mind telling me the reported IC50 of each entry?
API: value field is a number in nM; no unit string.

Note IC50 for the molecule shown: NC1CCC(c2ccc(CC3CCNCC3)c(S(N)(=O)=O)c2-c2nn[nH]n2)CC1 (centres unmarked)
56.9

Entry NS(=O)(=O)c1cccc(C#CCN2CCS(=O)(=O)CC2)c1-c1nn[nH]n1 needs its IC50 filled in; supply it.
131

Please give measured IC50 of the following entry: NS(=O)(=O)c1cccc(-c2ccc(OCCN3CCCCC3)cc2)c1-c1nn[nH]n1
54.7

Consider the molecule NS(=O)(=O)c1c(C(F)(F)F)ccc([C@H]2CC[C@H](C3CCNCC3)CC2)c1-c1nnn[nH]1 and give its recorded IC50.
0.501

Please give measured IC50 of the following entry: NS(=O)(=O)c1cccc(C2CCN(C(=O)C3(c4ccccc4)CC3)CC2)c1-c1nn[nH]n1
6.43

// Input: NS(=O)(=O)c1cccc(-c2cccc3c2CNC3=O)c1-c1nnn[nH]1 . Output its IC50 only.
1.42

Identify measured IC50 associated with NS(=O)(=O)c1nccc(N2CCC(c3cnc4n3CCCC4)CC2)c1-c1nnn[nH]1
142

Output measured IC50 for this item: NC1CCCC1N1CC(c2ccc(-c3ccc(C(F)(F)F)c(S(N)(=O)=O)c3-c3nnn[nH]3)cc2)C1 (centres unmarked)
4.78

* * *

# System: Serratia marcescens expressing IMP-1 (CL5741)
# MEASUREMENT_DESCRIPTION: Antibiotic potentiation activity: synergistic concentration (MITC95) with imipenem, OD600 growth
# Format: cell-based
# CONDITION_INFO: concentration giving 95% inhibition of bacterial growth
Consider the reported Serratia marcescens expressing IMP-1 (CL5741) MITC95 of an entry and match it to a band in class 1: < 10 µM; class 2: ≥ 10 µM and < 30 µM; class 3: ≥ 30 µM

Input Nc1cncc(-c2cccc(S(N)(=O)=O)c2-c2nnn[nH]2)n1 ; output its category
class 2

Class (by measured Serratia marcescens expressing IMP-1 (CL5741) MITC95) for NS(=O)(=O)c1cccc(-c2cccs2)c1-c1nn[nH]n1
class 2

Hey, which category is CC(C)c1cccc(S(N)(=O)=O)c1-c1nnn[nH]1 in, do you know?
class 1

Place this molecule in its band: NS(=O)(=O)c1cccc(-c2ccc(C(=O)N3CCC(O)CC3)cc2)c1-c1nn[nH]n1
class 1

Determine which band this molecule sits in: N=C(N)N1CCC(c2ccc(-c3cccc(S(N)(=O)=O)c3-c3nn[nH]n3)cc2)CC1
class 1

Consider NS(=O)(=O)c1nccc(N2CCC(c3cccnc3)CC2)c1-c1nnn[nH]1 . To which Serratia marcescens expressing IMP-1 (CL5741) MITC95 class does it belong?
class 2

Field: class (Serratia marcescens expressing IMP-1 (CL5741) MITC95) — entry: NS(=O)(=O)c1cccc(-c2ccc3[nH]nnc3c2)c1-c1nn[nH]n1
class 2

Lab log: Cc1csc(-c2cccc(S(N)(=O)=O)c2-c2nn[nH]n2)n1 — assign Serratia marcescens expressing IMP-1 (CL5741) MITC95 category
class 3

Textbook exercise: identify the category of the molecule given here, NC(=O)c1ccc(-c2cccc(S(N)(=O)=O)c2-c2nn[nH]n2)cc1 , according to its measured value.
class 2

Lab log: NS(=O)(=O)c1cccc(-c2nccs2)c1-c1nn[nH]n1 — assign Serratia marcescens expressing IMP-1 (CL5741) MITC95 category
class 3

Textbook exercise: identify the category of the molecule given here, Cc1nnc2ccc(-c3cccc(S(N)(=O)=O)c3-c3nnn[nH]3)cn12 , according to its measured value.
class 3

Into which bin does this molecule go? NS(=O)(=O)c1nccc(-c2ccc(N3CCOCC3)nc2)c1-c1nn[nH]n1
class 3

Where would Cn1ccc(-c2cccc(S(N)(=O)=O)c2-c2nn[nH]n2)n1 land among the classes by reported Serratia marcescens expressing IMP-1 (CL5741) MITC95?
class 2

Could you place Nc1[nH]nc2cc(-c3cccc(S(N)(=O)=O)c3-c3nnn[nH]3)ccc12 in its proper category? Many thanks.
class 1

Class? Entry: NS(=O)(=O)c1cccc(-c2cccc(F)n2)c1-c1nn[nH]n1
class 3

Band for the recorded Serratia marcescens expressing IMP-1 (CL5741) MITC95 of NS(=O)(=O)c1cccc(CCc2ccccn2)c1-c1nnn[nH]1 ?
class 3

Categorize the following entry: Nc1nc2c(-c3cccc(S(N)(=O)=O)c3-c3nnn[nH]3)cccc2s1
class 1

Class for NS(=O)(=O)c1cccc(-c2ccnn2Cc2ccccc2)c1-c1nn[nH]n1 ?
class 3

Which band does CN(c1ncc(-c2cccc(S(N)(=O)=O)c2-c2nn[nH]n2)cn1)S(C)(=O)=O fall in?
class 2

Class? Entry: CN(Cc1ccccc1)c1ccnc(S(N)(=O)=O)c1-c1nnn[nH]1
class 3

Hey, which category is NS(=O)(=O)c1cccc(C2CCC(N3CCNCC3)CC2)c1-c1nn[nH]n1 (centres unmarked) in, do you know?
class 1

Using the reported Serratia marcescens expressing IMP-1 (CL5741) MITC95, which band applies to NS(=O)(=O)c1cccc(-c2cnc(NC3CC3)nc2)c1-c1nnn[nH]1 ?
class 2

Category of CNC(=O)c1ccc(-c2cccc(S(N)(=O)=O)c2-c2nn[nH]n2)cc1 , please.
class 3

Assign a category based on measured Serratia marcescens expressing IMP-1 (CL5741) MITC95 for CCOC(=O)N1CCC(c2cccc(S(N)(=O)=O)c2-c2nn[nH]n2)CC1 and give only the class name.
class 1

// bin(item) where item = Nc1[nH]nc2ccc(-c3cccc(S(N)(=O)=O)c3-c3nnn[nH]3)cc12
class 2

Pick a category. Item: CS(=O)(=O)Nc1ccc(-c2cccc(S(N)(=O)=O)c2-c2nn[nH]n2)cc1
class 1

Please classify: NS(=O)(=O)c1cccc(-c2cnc(NC3CCCC3)nc2)c1-c1nnn[nH]1
class 1

Please classify: COC(=O)c1ccc(-c2ccnc(S(N)(=O)=O)c2-c2nnn[nH]2)cc1
class 3

Hey, which category is Cc1ccc(-c2cccc(S(N)(=O)=O)c2-c2nnn[nH]2)cc1 in, do you know?
class 2

Sort Cc1cc2nccn2cc1-c1cccc(S(N)(=O)=O)c1-c1nnn[nH]1 into one of the categories.
class 2

Please indicate the class for CN(C)c1ccc(-c2ccnc(S(N)(=O)=O)c2-c2nn[nH]n2)cn1 based on its Serratia marcescens expressing IMP-1 (CL5741) MITC95.
class 3

Category of NS(=O)(=O)c1nccc(N2CCC(Cc3ccncc3)CC2)c1-c1nnn[nH]1 :
class 1

Dear colleague, I would appreciate it if you could identify the bin for NS(=O)(=O)c1nccc(-c2ccc(CO)cc2)c1-c1nnn[nH]1 and reply at your convenience.
class 2

Assign a category based on measured Serratia marcescens expressing IMP-1 (CL5741) MITC95 for NS(=O)(=O)c1cccc(-c2ccc(F)nc2)c1-c1nn[nH]n1 and give only the class name.
class 3

Note: place this molecule into its band. Item: NS(=O)(=O)c1nccc(N2CCC(N3CC[C@H](O)C3)CC2)c1-c1nnn[nH]1
class 3
